- Test Target: Serine/threonine-protein kinase D1 (Homo sapiens)
- Settings: at 1 µM
// returns no (0) unless residual activity is strictly below 90%, in which case yes (1)

Please review the following examples before continuing.
COc1cc2ncnc(N3CCN(C(=O)Nc4ccc(Oc5ccccc5)cc4)CC3)c2cc1OC; no (0)
O=C1NC(=O)c2c1c1c3ccccc3[nH]c1c1[nH]c3cc(Br)ccc3c21; no (0)
CNc1cc2c(Nc3cccc(Br)c3)ncnc2cn1; yes (1)
O=C1NC(=O)/C(=C\c2ccc3nccnc3c2)S1; no (0)
Cc1ccc(S(=O)(=O)/C=C/C#N)cc1; no (0)

Prompt: Bench note: check whether Cc1ccc(NC2=CC(=O)c3sc(C)nc3C2=O)cc1 shows residual activity below 90%
Response: yes (1)

Prompt: Hello, I'm reviewing records and need to know if residual activity of CC(C)n1cnc2/c(=N/c3cccc(Cl)c3)nc(NCCO)[nH]c21 is below 90%. Could you check?
Response: yes (1)

Prompt: Hi there! Is residual activity for CO[C@H]1C[C@@H]2CC[C@@H](C)[C@@](O)(O2)C(=O)C(=O)N2CCCC[C@H]2C(=O)O[C@H]([C@H](C)C[C@@H]2CC[C@@H](O)[C@H](OC)C2)CC(=O)[C@H](C)/C=C(\C)[C@@H](O)[C@@H](OC)C(=O)[C@H](C)C[C@H](C)/C=C/C=C/C=C/1C below 90%, do you know?
Response: no (0)

Prompt: API: query returns whether the molecule falls strictly under 90% in residual activity. Query: COc1ccc(S(=O)(=O)N(CCO)c2ccccc2CN(C)C/C=C/c2ccc(Cl)cc2)cc1
Response: yes (1)

Prompt: Criterion: residual activity strictly below 90%. Is it met by O=C(O)c1ccc2c3c1cccc3c(=O)n1c3ccccc3nc21 ?
Response: no (0)

Prompt: residual activity strictly < 90% for this molecule? Oc1ccc(Nc2nc(-c3ccc(Cl)cc3)cs2)cc1
Response: no (0)

Prompt: Bench note: check whether CN(C)c1ccc(/C=C2\C(=O)Nc3ccccc32)cc1 shows residual activity below 90%
Response: no (0)

Prompt: Please state whether residual activity is below 90% for N#Cc1cnc2cnc(NCc3cccnc3)cc2c1Nc1ccc(F)c(Cl)c1
Response: yes (1)

Prompt: Say whether its residual activity is strictly beneath 90%. Entry: COc1cc2ncnc(Nc3ccc(Oc4ccccc4)cc3)c2cc1OC
Response: no (0)

====

- Test Target: Tyrosine-protein kinase receptor UFO (Homo sapiens)
- Settings: at 10 µM
Class (required): determined from residual activity; valid ranges are bucket A: < 60%; bucket B: ≥ 60% and < 80%; bucket C: ≥ 80%

Example entries begin here.
O=C1Nc2ccc(Br)cc2/C1=C\c1cc2c([nH]1)CCCC2; bucket B
Cn1cnc2cc3c(Nc4cccc(Br)c4)ncnc3cc21; bucket A
Cc1nc2cc3nc(-c4cccs4)cnc3cc2n1C; bucket B
N#Cc1cnc2cnc(NCc3cccnc3)cc2c1Nc1ccc(F)c(Cl)c1; bucket A
CC#CC(=O)Nc1cc2c(Nc3ccc(F)c(Cl)c3)ncnc2cn1; bucket B

Prompt: Band assignment needed for CCN(CC)CCCCN1c2ccccc2Oc2ccc(Cl)cc21 please.
Response: bucket C

Prompt: Please classify: CC(=O)c1ccc(N2CCOCC2)cc1O
Response: bucket C

Prompt: # bin lookup: classify Nc1ccc2ncnc(NCCc3ccc(Oc4ccccc4)cc3)c2c1 by its residual activity
Response: bucket A

Prompt: Pick a category. Item: CN(C)CCCn1cc(C2=C(c3c[nH]c4ccccc34)C(=O)NC2=O)c2ccccc21
Response: bucket A

Prompt: Assign a category based on measured residual activity for c1ccc2c(-c3ccncc3)c[nH]c2c1 and give only the class name.
Response: bucket B
